Molecular target: p53 Y220C (Homo sapiens, UniProt P04637, Y220C)
Experiment: Luciferase Reporter Assay (Luc), p53 response element, NClH1299 cells with inducible p53 Y220C
Format: cell-based
Details: luciferase reporter, NClH1299 inducible p53 Y220C, 6 hour; read-out: Luc P53 Y220C AC50
Below is a list of entries, each paired with its recorded AC50 value.

Please review the entries below; each comes with its answer.
{"compound": "C[C@@H](O)C#Cc1nc2c(N[C@@H]3CCN(C)C[C@@H]3F)cccn2c1CC(F)(F)F [Example 70]", "AC50": "> 3000 nM"}
{"compound": "CNC(=O)c1ccc(OC)c(NCC#Cc2cc3c(N[C@@H]4CNC[C@@H]4F)nccn3c2SC(F)(F)F)n1 [Example 210]", "AC50": "750 to 1500 nM"}
{"compound": "CNC(=O)c1ccc(NCC#Cc2nc3c(N[C@@H]4CCN(C)C[C@@H]4F)cccn3c2CC(F)(F)F)c(C#N)c1 [Example 56]", "AC50": "> 3000 nM"}
{"compound": "COc1ccc(C(=O)NC(C)C)cc1NCC#Cc1nc2c(N[C@@H]3CCN(C)C[C@@H]3F)cccn2c1SC(F)(F)F [Example 145]", "AC50": "< 750 nM"}
{"compound": "COc1ncc(C(N)=O)cc1NCC#Cc1nc2c(N[C@@H]3CCN(C)C[C@@H]3F)cccn2c1SC(F)(F)F [Example 140]", "AC50": "< 750 nM"}
{"compound": "C=CC(=O)Nc1c(C#CCNc2ccc(C(=O)NC)cc2OC)nc2c(N[C@@H]3CCN(C)C[C@@H]3F)cccn12 [Example 23]", "AC50": "> 3000 nM"}
{"compound": "COc1cc(S(C)(=O)=O)ccc1NCC#Cc1nc2c(NC3CCN(CCS(C)(=O)=O)CC3)cccn2c1CC(F)(F)F [Example 5]", "AC50": "> 3000 nM"}
{"compound": "COc1cc(S(=O)(=O)N(C)C)ccc1NCC#Cc1nc2c(N[C@@H]3CCN(C)C[C@@H]3F)cccn2c1CC(F)(F)F [Example 65]", "AC50": "< 750 nM"}
{"compound": "CNS(=O)(=O)c1ccc(NCC#Cc2nc3c(N[C@@H]4CCN(C)C[C@@H]4F)cccn3c2CC(F)(F)F)c(OC)c1 [Example 64]", "AC50": "750 to 1500 nM"}
{"compound": "COc1cc(S(C)(=O)=O)ccc1NCC#Cc1nc2c(NC3CCN(C)CC3)cccn2c1CC(F)(F)F [Example 2]", "AC50": "> 3000 nM"}

Q: Lookup: AC50 / p53 Y220C (Homo sapiens, UniProt P04637, Y220C) / CC#Cc1nn2c(N[C@@H]3CCN(C)C[C@@H]3F)cccc2c1CC(F)(F)F [Example 20]
A: > 3000 nM

Q: Look up AC50 with p53 Y220C (Homo sapiens, UniProt P04637, Y220C) for this compound: CN1CC[C@@H](Nc2cccn3c(CC(F)(F)F)c(C#CCNc4ccc(S(C)(=O)=O)cc4)nc23)[C@@H](F)C1 [Example 76]
A: 1500 to 3000 nM

Q: Param readout= AC50; system= p53 Y220C (Homo sapiens, UniProt P04637, Y220C); entry= CCS(=O)(=O)c1ccc(NCC#Cc2nc3c(N[C@@H]4CCN(C)C[C@@H]4F)cccn3c2SC(F)(F)F)c(OC)c1 [Example 79] ; returns value.
A: < 750 nM

Q: Quick check: AC50 on p53 Y220C (Homo sapiens, UniProt P04637, Y220C), item CN1CC[C@@H](Nc2cccn3c(CC(F)(F)F)c(C#CCNc4ccccc4)nc23)[C@@H](F)C1 [Example 112] ?
A: > 3000 nM
